The origin of these recorded values is patent US20240350493A1.

# experimental.protocol: phase I two-part drug-drug interaction study, plasma pharmacokinetics (Example 1)
# Type: in vivo, human
# measurement.setup: male, human, plasma, oral, 200 mg belumosudil single dose + itraconazole; read-out: AUCinf, arithmetic mean (SD)
quantity.kind: AUC(0-inf) (ng·h/mL)
Return type: number; implicit unit ng·h/mL.

// recorded AUC(0-inf) for CC(C)NC(=O)COc1cccc(-c2nc(Nc3ccc4[nH]ncc4c3)c3ccccc3n2)c1 [Belumosudil] : 11900

###

# experimental.protocol: food effect study, 5 × 100 mg capsules (KD025-105)
# Format: in vivo, human
# measurement.setup: male, human, plasma, oral, 500 mg, 5 × 100 mg capsules, fed; read-out: AUC0-24, geometric mean (geometric CV %)
quantity.kind: AUC(0-t) (ng·h/mL)
Return type: number; implicit unit ng·h/mL.

// recorded AUC(0-t) for CC(C)NC(=O)COc1cccc(-c2nc(Nc3ccc4[nH]ncc4c3)c3ccccc3n2)c1 [Belumosudil] : 23300
